Experiment: chemical genetic growth profiling, strain panel (AID 1159580);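 further: tested at 20 µM; growth read once vehicle control cultures reached saturation at 30 °C; 1 = growth at the plate median or of vehicle wells; lower values mean less growth of the strain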
Conditions: S. cerevisiae deletion strains, growth OD, locus YDR069C, strain doa4, active compounds read low
About 2,000 (36%) of roughly 5,500 compounds were called active. Inconclusive results (about 18%) are left out. The list shows a part of the results.
Each item that follows carries a reported normalized growth.
The answer should be a number; do not append a unit.

Example compounds with recorded normalized growth:
- compound: "C[C@@H](N)CO"
  normalized growth: 0.967
- compound: "COc1cc(O)c(C(=O)c2ccccc2)cc1O"
  normalized growth: 1.02
- compound: "COc1cc(OC)c2c(c1)O[C@H](c1ccc(OC)c(OC)c1)[C@@H](O)C2"
  normalized growth: 0.976
- compound: "CCCCCC(C)N (configuration not stated)"
  normalized growth: 1.01
- compound: "COc1ccc(C(=O)c2ccccc2)c(O)c1"
  normalized growth: 0.879

# get_value(readout='normalized growth', item= COc1ccc2c(c1)OC[C@@H](Cc1ccc(OC)c(OC)c1)[C@H]2O ) 0.992

GET /values?readout=normalized growth&item= COC(=O)C1=COC(OC2OC(CO)C(O)C(O)C2O)C2C(C)CC(=O)C12O (configuration not stated) 0.985
